Data origin, for the record: ChEMBL document CHEMBL1153531

Listing: AUC(0-inf) of selected compounds
- assay details: AUC (0 to infinity) in Sprague-Dawley rat at 5 mg/kg, iv
- Type: ADME, organism-based
- Set-up: time infinity, dose 5 mg/kg, route intravenous
- test conditions: plasma
Answer format: numeric, ng·h/mL implied, no suffix.

> print(dat)
                                 cpd.smiles  reported.property  reported.measurement
1  CNC[C@@H](O)[C@H](c1cccc(F)c1)n1c(=O)n(C(C)C)c2cccc(F)c21         AUC(0-inf)                  3650

Quick note, AUC(0-inf) for CCn1c(=O)n([C@@H](c2ccccc2)[C@H](O)CNC)c2ccccc21 landed at 1640

* * *

Consider the following IC50 values measured on UniProt P23975.
Please give a number only; it is taken to be in nM.

> print(dat)
                                 cpd.smiles  reported.measurement
1  CNC[C@@H](O)[C@H](c1ccccc1)n1c(=O)n(C2CCC2)c2ccccc21                  42.5
2  CCCn1c(=O)n([C@@H](c2ccccc2)[C@H](O)CNC)c2ccccc21                  18.6
3  CNC[C@@H](O)[C@H](c1ccccc1)n1c(=O)n(C(C)C)c2ccccc21                  13.4
4  CNC[C@@H](O)[C@H](c1ccccc1)n1c(=O)n(C2CCCC2)c2ccccc21                  66.7
5  CCn1c(=O)n([C@@H](c2ccccc2)[C@H](O)CNC)c2cc(F)ccc21                  36.7

Proceed to the following item.
Test item CNC[C@@H](O)[C@H](c1ccccc1)n1c(=O)n(C(C)(C)C)c2ccccc21 ; UniProt P23975; reported IC50 was 56

* * *

- System: CHO
- assay details: Selectivity for human NET expressed in MDCK-Net6 cells over human DAT expressed in CHO cells
- Assay type: cell-based
Reported Selectivity ratio values for the following compounds.

> print(dat)
                                 cpd.smiles  reported.property  reported.measurement
1  CNC[C@@H](O)[C@H](c1cccc(F)c1)n1c(=O)n(C(C)C)c2cccc(F)c21  Selectivity ratio                 > 500
2  CCn1c(=O)n([C@@H](c2cccc(F)c2)[C@H](O)CNC)c2ccccc21  Selectivity ratio                 > 500
3  CNC[C@@H](O)[C@H](c1ccccc1)n1c(=O)n(C(C)C)c2cccc(F)c21  Selectivity ratio                 > 500

Now let's try a different one.
Field Selectivity ratio (entry CCn1c(=O)n([C@@H](c2cccc(F)c2)[C@H](O)CNC)c2c(F)cccc21 ) reads > 500

* * *

- experimental target: Sodium-dependent serotonin transporter (Homo sapiens)
- test conditions: JAR
reported property: IC5

Guide cases for IC5, answers given:
> print(dat)
                                 cpd.smiles  reported.measurement
1  CNC[C@@H](O)[C@H](c1ccccc1)n1ccc2ccccc21              0.358 µM
2  CCCn1c(=O)n([C@@H](c2ccccc2)[C@H](O)CNC)c2cc(F)ccc21               8.32 µM

Record summary for CNC[C@@H](O)[C@H](c1ccccc1)n1c(=O)n(C(C)C)c2cccc(F)c21 : reported IC5 = > 10 µM

IC5 in this record for CNC[C@@H](O)[C@H](c1cccc(F)c1)n1c(=O)n(C(C)C)c2cccc(F)c21 : 6.32 µM

IC5 reported for this compound CCn1c(=O)n([C@@H](c2cccc(F)c2)[C@H](O)CNC)c2c(F)cccc21 : > 10 µM

The recorded IC5 for entry CNC[C@@H](O)[C@H](c1ccccc1)n1c(=O)n(C2CCCC2)c2ccccc21 equals 2.37 µM

Record CCn1c(=O)n([C@@H](c2cccc(F)c2)[C@H](O)CNC)c2ccccc21 , field IC5: > 10 µM

* * *

- assay details: Plasma clearance in Sprague-Dawley rat at 5 mg/kg, iv
- Format: ADME, organism-based
- Design: dose 5 mg/kg, route intravenous
reported property: clearance (mL/min/kg)
Give the quantity in mL/min/kg, number only.

> print(dat)
                                 cpd.smiles  reported.property      units  reported.measurement
1  CCn1c(=O)n([C@@H](c2ccccc2)[C@H](O)CNC)c2ccccc21          clearance  mL/min/kg                    54

Consider now this further compound.
Item: CNC[C@@H](O)[C@H](c1cccc(F)c1)n1c(=O)n(C(C)C)c2cccc(F)c21 | clearance: 24

* * *

- experimental target: Sodium-dependent noradrenaline transporter (Homo sapiens, UniProt P23975)
- Sequence (P23975 whole entry): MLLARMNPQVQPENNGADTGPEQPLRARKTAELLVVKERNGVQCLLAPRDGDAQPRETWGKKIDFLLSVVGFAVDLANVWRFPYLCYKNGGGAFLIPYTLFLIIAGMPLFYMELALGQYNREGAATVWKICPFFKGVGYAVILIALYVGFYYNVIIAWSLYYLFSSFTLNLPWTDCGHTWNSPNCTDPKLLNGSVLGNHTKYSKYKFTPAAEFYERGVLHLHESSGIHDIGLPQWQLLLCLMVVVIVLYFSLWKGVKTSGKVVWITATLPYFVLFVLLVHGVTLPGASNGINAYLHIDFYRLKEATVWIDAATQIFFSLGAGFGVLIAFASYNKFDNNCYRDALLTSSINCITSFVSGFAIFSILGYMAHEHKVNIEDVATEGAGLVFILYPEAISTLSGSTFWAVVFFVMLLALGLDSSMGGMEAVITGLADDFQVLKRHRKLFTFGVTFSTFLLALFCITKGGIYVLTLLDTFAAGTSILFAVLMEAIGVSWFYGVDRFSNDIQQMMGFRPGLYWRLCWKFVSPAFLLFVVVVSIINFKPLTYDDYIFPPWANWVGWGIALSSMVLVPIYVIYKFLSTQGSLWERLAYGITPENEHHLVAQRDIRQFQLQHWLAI
Here the recorded IC50 is given for each entry.
Please don't drop the unit; write it after the number.

> print(dat)
                                 cpd.smiles  reported.measurement
1  CCn1c(=O)n([C@@H](c2ccccc2)[C@H](O)CNC)c2c(F)cccc21               13.8 nM

IC50 reported for this compound CCn1c(=O)n([C@@H](c2ccccc2)[C@H](O)CNC)c2ccccc21 : 17.5 nM

Sure, the documented IC50 for CCCn1c(=O)n([C@@H](c2ccccc2)[C@H](O)CNC)c2cc(F)ccc21 is 39.4 nM

Looking up CNC[C@@H](O)[C@H](c1cccc(F)c1)n1c(=O)n(-c2ccccc2)c2cccc(F)c21 , I found its IC50 recorded as 91.9 nM

compound CNC[C@@H](O)[C@H](c1ccccc1)n1c(=O)n(C)c2ccccc21 , IC50 observed: 257 nM
